Tested on: OVCAR-5 ovarian
MEASUREMENT_DESCRIPTION: NCI-60 one-dose screen, 48 h
CONDITION_CONTEXT: 10 µM unless noted
This is part of a sample that, as a whole, favours compounds with a hit. Of some 83,000 tested, about 20% had one in any assay. The source made the active and inactive calls. Rule for the calls: active = growth percent below 10; inactive = the rest.
Labels: Y for active, N for inactive

* O=C(O)CCCN1C(=O)/C(=C/C(Cl)=C/c2ccccc2)SC1=S | N
* CCCCCOc1ccc(C(=O)/C(Br)=C/C(=O)O)cc1 | N
* C#Cc1ccc(NC(=O)c2ccc(/C=C/C(=O)c3nccn3C)cc2)cc1 | Y
* Cc1ccccc1NC(=O)c1sc2nc(C)c(C(=O)/C=C/c3ccccc3)cc2c1N | N
* CCCCC[C@@H]1Cc2cc(O)c(C(=O)O)c3c2[C@H](C[C@]2(OC[C@@H](CC(=O)[C@@](C)(CC)C(=O)OC)[C@@H]2C)O3)O1 | N
* O=C(COc1ccc(-c2nc3ccccc3[nH]2)cc1)N=Nc1c(O)[nH]c2ccc(Cl)cc12 | N
* C=CCn1c(SCC(=O)NCc2cc(C)c(O)c(C)c2)nc2ccc(Cl)cc2c1=O | N
* COc1ccccc1NC(=O)Cn1cc(CN2CCN(c3ccnc4cc(Cl)ccc34)CC2)nn1 | N
* N#Cc1cccc(NC(=O)c2oc3ccccc3c2-c2cnn(-c3ccccc3)c2)c1 | N
* O=C(NNc1nccc(Nc2ccc(S(=O)(=O)Nc3ccncc3)cc2)n1)c1ccccc1 | N
* c1ccc(C2=NN[C@H](c3cn(-c4ccccc4)nc3-c3ccccc3)C2)cc1 | N
* CCCC(O)Cn1ncc(C(=O)OCC)c1NC(=O)NCc1ccccc1F (configuration not stated) | N
* COc1cc(-c2nc3cc(Cl)c(Cl)cc3[nH]2)ccc1OCC(=O)N=Nc1c(O)[nH]c2ccc([N+](=O)[O-])cc12 | N
* COc1ccc(C2c3sc4c(F)cccc4c3Oc3nc[nH]c(=O)c32)cc1 (configuration not stated) | N
* N#Cc1c(-c2cccs2)cc(-c2cccnc2)[nH]c1=O | N
* C=C(C)[C@@H]1CC[C@]2(C)[C@H](CC=C3[C@@H]4[C@H](C)[C@@H](C)CC[C@]4(CO)CC[C@]32C)[C@@]1(C)CCCN | N
* N=C(N)c1ccc(-c2ccc(-c3cc(Cl)cc(Cl)c3)o2)o1 | Y
* N#C/C(=C\c1ccc(-c2ccc(Cl)cc2)o1)C(=O)Nc1ncc(Cc2ccc(Cl)cc2)s1 | N
* O=[N+]([O-])c1ccc(N/N=C(/C(=N/Nc2ccc([N+](=O)[O-])cc2)c2ccccc2)c2ccccc2)cc1 | N
* CNC(=O)c1cc(Oc2ccc3c(c2)sc2nc(-c4cc(OC)c(OC)c(OC)c4)cn23)ccn1 | N
* O=C(NNC(=O)c1ccc(-n2cc(-c3ccccc3)nn2)cc1)Nc1ccccc1 | N
* CN(C)c1ccc(/C=C/C(=O)c2ccc(-n3cc(CN4CCN(c5cc6c(cc5F)c(=O)c(C(=O)O)cn6C5CC5)CC4)nn3)cc2)cc1 | N
* CS(=O)(=O)Nc1cc(-c2ccc3ncnc(Nc4ccc5c(cnn5Cc5ccccn5)c4)c3c2)cnc1Cl | N
* Cc1cc2c(O)c(-c3cccc(Cl)c3)c3sc(=O)oc3c2cc1C | N
* CC(=O)[C@@H]1CCC=C2CC[C@]3(C)[C@@H](CC[C@@H]4[C@@]5(C)CCCNC(C)(C)[C@@H]5CC[C@]43C)[C@H]21 | N
* CN(CCOc1ccc(C#N)cc1)CCOc1ccc(C#N)cc1 | N
* O=C1c2cccc3cccc(c23)C(=O)N1N1C(=O)c2cccc3c(N4CCOCC4)ccc(c23)C1=O | N
* C=C(C)[C@@H]1CC[C@]2(C(=O)OC)CC[C@]3(C)[C@H](CC[C@@H]4[C@@]5(C)C/C(=C/NC(N)=S)C(=O)C(C)(C)[C@@H]5CC[C@]43C)[C@@H]12 | N
* COc1ccc(C(c2cc(OC)c(OC)c(OC)c2)N2CCN(c3ccccc3)CC2)cc1 (configuration not stated) | N
* N#Cc1c(N)nnn1Cc1cc(=O)oc2c1ccc1ccccc12 | N
* Cc1ccccc1Cn1cnc2ccc(-c3cc(NC(=O)c4ccc(NC5CCN(C)CC5)cc4)n[nH]3)cc21 | N
* O=C1c2cccnc2C(=O)c2c1c(C(=O)NCCCN1CCCCC1)c1ccccn21 | Y
* CCOC(=O)c1nc(Nc2ccc(NC(=O)Nc3ccc(F)cc3)cc2)c2ccccc2n1 | N
* Fc1cc(F)cc(C(c2c[nH]c3ccccc23)c2c[nH]c3ccccc23)c1 | N
* c1cc2[nH]ncc2cc1-c1nc2ccc3[nH]ncc3c2c2c1CCCC2 | N
* CC/C(=C(/c1ccc(Cl)cc1)c1ccc(OCCN2CCCC2)cc1)c1ccc(OC)cc1 | N
* N#C/C(=C/c1ccc([N+](=O)[O-])cc1)n1nnc2cc(F)c(F)cc21 | N
